Source: patent EP4778929A1

assay: Pharmacokinetic study in mice, plasma concentrations by LC-MS/MS; conditions: mouse, in vivo, iv, 2 mg/kg
reported-metric: half-life (h)
Quick note: give the figure in h, leave out the unit.

q: Item under review: "CC[C@@]1(O)C(=O)OCc2c1cc1n(c2=O)Cc2c-1c(=O)c1cc(F)cc(C)c1n2C" . Reported half-life?
a: 1.16

----------
Assay: in vivo
Details: mouse, iv, 1 mg/kg
Method: Test Example 3. Pharmacokinetic Study for Determining Compound Concentrations in Mice by LC-MS/MS Principle: LC-MS/MS is used to quantify the plasma concentrations of the test article at successive time points, generating an in-vivo pharmacokinetic profile. Procedure: The test compound was dissolved in DMSO to prepare a 10 mg/mL stock solution. […] Plasma drug concentrations were determined by LC-MS/MS. […]
reported-metric: AUC(0-t) at 24 h (ng·h/mL)
Quick note: give the figure in ng·h/mL, leave out the unit.

q: Item under review: CCc1c2c(nc3ccc(O)cc13)-c1cc3c(c(=O)n1C2)COC(=O)[C@]3(O)CC [SN38] . Reported AUC(0-t) at 24 h?
a: 103

----------
assay: Pharmacokinetic study in mice, plasma concentrations by LC-MS/MS; conditions: mouse, in vivo, iv, 1 mg/kg
reported-metric: Cmax

Example results:
CC[C@@]1(O)C(=O)OCc2c1cc1n(c2=O)Cc2c-1c(=O)c1cc(F)ccc1n2CCN(C)C1CC1	256 ng/mL
CC[C@@]1(O)C(=O)OCc2c1cc1n(c2=O)Cc2c-1c(=O)c1cc(F)ccc1n2CCN(C)C1CCCC1	107 ng/mL

q: Item under review: "CC[C@@]1(O)C(=O)OCc2c1cc1n(c2=O)Cc2c-1nc1cc(F)c(C)c3c1c2[C@@H](NC(=O)CO)CC3" . Reported Cmax?
a: 455 ng/mL

----------
assay: Pharmacokinetic study in mice, plasma concentrations by LC-MS/MS; conditions: mouse, in vivo, po, 20 mg/kg
reported-metric: bioavailability (%)
Quick note: give the figure in %, leave out the unit.

q: Item under review: "CC[C@@]1(O)C(=O)OCc2c1cc1n(c2=O)Cc2c-1c(=O)c1cc(F)cc(C)c1n2C" . Reported bioavailability?
a: 28.5

----------
Entries and their clearance
assay: Pharmacokinetic study in mice, plasma concentrations by LC-MS/MS; conditions: mouse, in vivo, iv, 1 mg/kg
Quick note: give the figure in mL/min/kg, leave out the unit.

CC[C@@]1(O)C(=O)OCc2c1cc1n(c2=O)Cc2c-1c(=O)c1cc(F)ccc1n2CCN(C)C1CC1	146

q: Item under review: "CC[C@@]1(O)C(=O)OCc2c1cc1n(c2=O)Cc2c-1c(=O)c1cc(F)ccc1n2CCN(C)C1CCCC1" . Reported clearance?
a: 439

q: Item under review: "CC[C@@]1(O)C(=O)OCc2c1cc1n(c2=O)Cc2c-1nc1cc(F)c(C)c3c1c2[C@@H](NC(=O)CO)CC3" . Reported clearance?
a: 108

----------
test: in vivo; conditions: mouse, iv, 1 mg/kg
reported-metric: clearance (mL/min/kg)
Quick note: give the figure in mL/min/kg, leave out the unit.

q: Item under review: CCc1c2c(nc3ccc(O)cc13)-c1cc3c(c(=O)n1C2)COC(=O)[C@]3(O)CC [SN38] . Reported clearance?
a: 163

----------
target: topoisomerase I (Topo I) (Homo sapiens); assay: Topo I enzyme-inhibitory activity by agarose-gel electrophoresis (plasmid relaxation); type: biochemical; settings: read-out: inhibition of topoisomerase I (Topo I) enzymatic activity, IC50; 0.75 U Topo I, pNO1 plasmid, 37 °C, 30 min; compounds listed by group (Group A / Group B)
Sequence (P11387 whole entry): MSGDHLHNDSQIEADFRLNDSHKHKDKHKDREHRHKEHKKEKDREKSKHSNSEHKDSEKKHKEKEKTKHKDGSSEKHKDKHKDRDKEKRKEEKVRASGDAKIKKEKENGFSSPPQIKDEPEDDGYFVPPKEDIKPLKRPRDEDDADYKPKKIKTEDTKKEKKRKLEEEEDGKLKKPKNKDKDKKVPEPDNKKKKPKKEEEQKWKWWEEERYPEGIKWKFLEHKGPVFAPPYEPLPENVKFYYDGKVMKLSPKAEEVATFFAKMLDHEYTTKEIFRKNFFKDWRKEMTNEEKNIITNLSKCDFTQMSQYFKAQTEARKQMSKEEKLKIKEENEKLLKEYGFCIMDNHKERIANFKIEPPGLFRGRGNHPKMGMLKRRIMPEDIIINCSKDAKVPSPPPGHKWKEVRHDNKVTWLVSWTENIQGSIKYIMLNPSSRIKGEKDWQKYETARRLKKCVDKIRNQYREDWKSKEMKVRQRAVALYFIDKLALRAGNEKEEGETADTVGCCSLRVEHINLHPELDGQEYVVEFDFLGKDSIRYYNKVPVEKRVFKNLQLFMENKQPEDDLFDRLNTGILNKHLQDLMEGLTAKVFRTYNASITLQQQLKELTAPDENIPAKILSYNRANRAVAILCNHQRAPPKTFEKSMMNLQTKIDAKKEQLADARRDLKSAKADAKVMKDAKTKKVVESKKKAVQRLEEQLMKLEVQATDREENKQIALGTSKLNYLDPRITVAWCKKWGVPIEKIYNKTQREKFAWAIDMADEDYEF
reported-metric: IC50

Example results:
CCOCCc1cc(F)cc2c(=O)c3c(n(C)c12)Cn1c-3cc2c(c1=O)COC(=O)[C@]2(O)CC	200 to 500 nM
CC[C@@]1(O)C(=O)OCc2c1cc1n(c2=O)Cc2c-1c(=O)c1cc(F)c(N)cc1n2-c1ccc2c(c1)OC(F)(F)O2	< 200 nM
CC[C@@]1(O)C(=O)OCc2c1cc1n(c2=O)Cc2c-1c(=O)c1cc(F)cc(C)c1n2CCN(C)C1CCCC1	200 to 500 nM

q: Form field: IC50 recorded for "CC[C@@]1(O)C(=O)OCc2c1cc1n(c2=O)Cc2c-1c(=O)c1cc(F)ccc1n2-c1ccc(N)cc1" with topoisomerase I (Topo I) (Homo sapiens) (enter value)
a: 200 to 500 nM

q: Form field: IC50 recorded for "CC[C@@]1(O)C(=O)OCc2c1cc1n(c2=O)Cc2c-1c(=O)c1cc3c(cc1n2CCN(C)C1CCCC1)OCO3" with topoisomerase I (Topo I) (Homo sapiens) (enter value)
a: 200 to 500 nM

q: Form field: IC50 recorded for "CC[C@@]1(O)C(=O)OCc2c1cc1n(c2=O)Cc2c-1c(=O)c1cc(F)cc(C)c1n2CCNC1CCCC1" with topoisomerase I (Topo I) (Homo sapiens) (enter value)
a: 200 to 500 nM

q: Form field: IC50 recorded for "CC[C@@]1(O)C(=O)OCc2c1cc1n(c2=O)Cc2c-1c(=O)c1cc(F)c(CN(C)C3CC3)cc1n2C1CC1" with topoisomerase I (Topo I) (Homo sapiens) (enter value)
a: 200 to 500 nM

q: Form field: IC50 recorded for "CC[C@@]1(O)C(=O)OCc2c1cc1n(c2=O)Cc2c-1c(=O)c1cc(F)ccc1n2C(C)C" with topoisomerase I (Topo I) (Homo sapiens) (enter value)
a: < 200 nM

q: Form field: IC50 recorded for "CC[C@@]1(O)C(=O)OCc2c1cc1n(c2=O)Cc2c-1c(=O)c1cc(F)cc(CNC3CC3)c1n2C" with topoisomerase I (Topo I) (Homo sapiens) (enter value)
a: 200 to 500 nM

q: Form field: IC50 recorded for "CC[C@@]1(O)C(=O)OCc2c1cc1n(c2=O)Cc2c-1c(=O)c1cc(F)cc(CN(C)C3CC3)c1n2C" with topoisomerase I (Topo I) (Homo sapiens) (enter value)
a: 200 to 500 nM

q: Form field: IC50 recorded for "CC[C@@]1(O)C(=O)OCc2c1cc1n(c2=O)Cc2c-1c(=O)c1cc(F)cc(F)c1n2C" with topoisomerase I (Topo I) (Homo sapiens) (enter value)
a: < 200 nM
